# EXPERIMENTAL TARGET: Melanocortin receptor 5 (Homo sapiens); also: in other assays of this panel Not Active means under 50% inhibition at 10 µM
# Sequence (P33032 whole entry): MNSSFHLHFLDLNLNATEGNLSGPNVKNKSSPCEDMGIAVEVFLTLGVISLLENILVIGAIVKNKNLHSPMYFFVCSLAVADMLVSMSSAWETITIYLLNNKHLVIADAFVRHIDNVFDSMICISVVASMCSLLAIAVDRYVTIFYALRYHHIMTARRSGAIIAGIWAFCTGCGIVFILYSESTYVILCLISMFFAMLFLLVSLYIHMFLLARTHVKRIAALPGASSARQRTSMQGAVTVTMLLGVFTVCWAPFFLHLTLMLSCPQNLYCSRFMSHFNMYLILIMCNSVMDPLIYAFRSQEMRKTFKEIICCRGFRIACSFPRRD
# Type: cell membranes, HEK293, Membrane
# APPLIED CONDITIONS: hek293
Where a SMILES comes first, the peptide text is derived from it. Bridges are numbered along the chain shown (N, C = ends). [ ]: non-standard residue; d: D form. The star is where a group is joined. Ileψ(thiazoline)Cys = CC[C@H](C)[C@H](N)C1=N[C@H](C(=O)*)CS1; dOrn = NCCC[C@@H](N)C(=O)O
READOUT LABEL: IC50

| COMPOUND | READING |
| --- | --- |
| CC[C@H](C)[C@H](N)C1=N[C@H](C(=O)N[C@@H](CC(C)C)C(=O)N[C@H](CCC(=O)O)C(=O)N[C@H](C(=O)N[C@H]2CCCCNC(=O)[C@H](CC(N)=O)NC(=O)[C@@H](CC(=O)O)NC(=O)[C@H](Cc3cnc[nH]3)NC(=O)[C@@H](Cc3ccccc3)NC(=O)[C@H]([C@@H](C)CC)NC(=O)[C@@H](CCCN)NC2=O)[C@@H](C)CC)CS1 [BACITRACIN] ({Ileψ(thiazoline)Cys}-L[dE]IK[dOrn]I[dF]H[dD]N; lactam 4-C) | Not Active |
| CN(C)CCCN1c2ccccc2CCc2ccc(Cl)cc21 [CLOMIPRAMINE] | Not Active |
| CC(C)[C@H](N)C(=O)OCCOCn1cnc2c(=O)nc(N)[nH]c21 [VALACYCLOVIR] | Not Active |
| CCC1(c2ccccc2)C(=O)NCNC1=O [PRIMIDONE] | Not Active |

The measurements presented in this section are drawn from ChEMBL document CHEMBL1909046.
